- System: SK-MEL-5 melanoma
- ASSAY DETAILS: NCI tumour cell line growth inhibition, 48 h
Assignment: determine reported TGI for the given compounds.

Any idea what TGI was measured for Cc1cccc2c1nc1n2C(=O)c2ccccc2-1 ? > 100 µM

Lookup C[C@H]1CCC/C=C/[C@@H]2C[C@H](OC3OC(CO)C(O)C(O)C3O)C[C@H]2[C@H](O)/C=C/C(=O)O1 (stereo not given in full) 31.6 µM

Lookup O=C(O)c1ccccc1C(=O)c1ccco1 > 100 µM

Lookup [O-][n+]1c2cccc(O)c2[n+]([O-])c2cccc(O)c21 > 100 µM

Lookup CC1CCCP(=O)(c2ccccc2)CCC1 (stereo not given) > 100 µM

Lookup Oc1cn(-c2ccc(Cl)cc2)nc1-c1n[nH]c(=S)n1-c1ccc(F)cc1 35.9 µM

Lookup N#CC(C(=O)Nc1ccccc1)C1=C(Cl)C(=O)c2ccccc2C1=O (stereo not given) 30.2 µM

Lookup CCOC(=O)C(Cc1ccc(N=NN(C)C)cc1)NC(=O)CC1c2ccccc2-c2ccccc21 (stereo not given) > 100 µM

Lookup Cc1ccc(S(=O)(=O)Nc2ccccc2C(C)(C)C)cc1 29.8 µM

Lookup CC(=O)C1(C(=O)C(=[N+]=[N-])S(=O)(=O)c2ccccc2)CC1 > 100 µM

Lookup O=C(O)C1CCC(=O)N1C(=O)COc1cc(Cl)c(Cl)cc1Cl (stereo not given) > 100 µM

Lookup Nc1c(C(=O)O)c2ccc([N+](=O)[O-])cc2c(=O)n1-c1nc2ccccc2s1 > 100 µM

Lookup COC1=C(OC)C(=O)C(Cc2c(Cl)nc3sccn23)=C(C)C1=O 17.5 µM

Lookup O=C1c2cccc3c(N4CCOCC4)ccc(c23)C(=O)N1CCN1CCN(CCCCCN2CCN(CCN3C(=O)c4cccc5c(N6CCOCC6)ccc(c45)C3=O)CC2)CC1 > 100 µM

Lookup CCc1c(OC(C)=O)c2c(NC3OC(COC(C)=O)C(OC(C)=O)C(OC(C)=O)C3OC(C)=O)nc(SC)nc2oc1=O (stereo not given) > 100 µM

Lookup COC(=O)c1ccc(NC(N)=NCCC(C)(C)c2ccc(C(F)(F)F)cc2)nc1 2.99 µM

Lookup CCCCCCCCCCCC1=C(O)C(=O)C(CC2=C(O)C(=O)C(CCCCCCCCCCC)=C(O)C2=O)=C(O)C1=O > 100 µM

Lookup NC(=O)CSc1nc2ccccc2c(=O)n1N > 100 µM

Lookup CCCCCCCCCCCCOCC(COP(=O)(O)OCCN=[N+]=[N-])OC(=O)CCCCCCCCCCC (stereo not given) > 100 µM

Lookup Cc1ccc(S(=O)(=O)OCCN(CCOS(=O)(=O)c2ccc(C)cc2)c2ccc(C=O)cc2)cc1 > 100 µM

====

Assignment: determine reported TGI for the given molecules.
- Tested on: U251 CNS
- ASSAY DETAILS: NCI tumour cell line growth inhibition, 48 h

Any idea what TGI was measured for O=S(Nc1ccccc1)c1ccc(Cl)cc1 (configuration not stated) ? > 100 µM

Lookup COCOC1CCCC[C@@]1(OCCOCCO[C@@]1(c2ccccc2)CCCC[C@H]1OCOC)c1ccccc1 (some centres not stated) > 100 µM

Lookup O=[N+]([O-])/C=C/c1ccc2ccccc2c1 3.08 µM

Lookup O=c1[nH]ncc2[nH]c3c(c12)CCc1ccccc1-3 > 100 µM

Lookup O=c1[nH]c2c(Nc3c4ccccc4nc4ccccc34)c([N+](=O)[O-])c(Nc3c4ccccc4nc4ccccc34)c([N+](=O)[O-])c2[nH]1 8.35 µM

Lookup N#Cc1c(-c2ccccc2)c(-c2ccccc2)cc2c(=O)c3ccc(Cl)cc3[nH]c12 > 100 µM

Lookup C=CCOC(C)(C)C1=CCC(C)CC1 (configuration not stated) > 100 µM

Lookup COc1cc2c(cc1O)C(Cc1ccc(OCc3ccccc3)c(OCc3ccccc3)c1)N(C(=O)NCCc1ccccc1)CC2 (configuration not stated) > 100 µM

Lookup COc1cc(C=O)cc(C=Nc2ccc(Br)cc2)c1O > 100 µM

Lookup C=C1C(=O)O[C@@H]2C[C@@]3(C)[C@H](O)CCC(=C)[C@@H]3C[C@H]12 26.2 µM

Lookup OCC1OC(OC2(CO)OC(CO)C(O)C2O)C(O)C(O)C1O (configuration not stated) > 100 µM

Lookup CC1CC(c2ccccc2)=Nc2ccccc2S1 (configuration not stated) > 100 µM

Lookup OCCN1CCN(c2nc(N3CCCC3)c3nc(Cl)c(NCc4ccccc4)nc3n2)CC1 18.2 µM

Lookup O=C(O)c1ccccc1NCn1nc(-c2ccccc2O)oc1=S > 100 µM

Lookup O=C(Nc1ccc(-n2cc(-c3ccncc3)c(-c3ccc(O)c(Cl)c3)n2)cc1)Nc1cc(C(F)(F)F)cc(C(F)(F)F)c1 12.4 µM

Lookup COc1ccc(S(=O)(=O)NC(CCC(=O)NC(N)=O)C(=O)NC(N)=O)cc1 (configuration not stated) > 100 µM

Lookup O=C1C=CC2(CCC23C=CC(=O)O3)O1 (configuration not stated) > 100 µM

Lookup O=C1OC(=O)c2c1nc1ccccc1c2-c1ccccc1 > 100 µM

Lookup C1CN2CCO[SiH](O1)OCC2 > 100 µM

Lookup Cc1ccc(-n2nc(C(OC3OC(CO)C(O)C(O)C3O)C(O)CO)c3nc4cc(C)c(C)cc4nc32)cc1 (configuration not stated) > 100 µM

Lookup [O-][n+]1c2cccc(O)c2[n+]([O-])c2cccc(O)c21 > 100 µM

Lookup COC(=O)CCC(C)[C@H]1CCC2C3CC[C@@H]4CC5(CC[C@]4(C)C3C[C@H](OC(C)=O)[C@@]21C)OOC1(CCCCC1)OO5 (some centres not stated) > 100 µM

====

Assignment: determine reported TGI for the given compounds.
- Tested on: MOLT-4 leukemia
- ASSAY DETAILS: NCI tumour cell line growth inhibition, 48 h

Any idea what TGI was measured for COc1cccc(-c2cc(=O)c3cc(N4CCN(C)CC4)ccc3[nH]2)c1 ? 7.21 µM

Lookup COc1cccc(/C=N/[N-]C(N)=O)c1[O-].[Cu+2].[OH3+] 38.3 µM

Lookup O=C1/C(=C\c2cccc(Oc3ccccc3)c2)SC(c2ccccc2)N1c1cc(Cl)ccc1Cl (stereo unspecified) > 100 µM

Lookup C#COc1cccc(Nc2ncnc3cc(NC(=O)[C@@H](C)Cl)ccc23)c1 > 62.5 µM

Lookup OCCNc1nc2ccccc2c2[nH]c3ccccc3c12 1.48 µM

Lookup O=C(CI)NC(=O)NC(=O)NCc1ccccc1 3.15 µM

====

- System: NCI-H522 lung
- ASSAY DETAILS: NCI tumour cell line growth inhibition, 48 h
RESULT TYPE: TGI

// lookup TGI | system=NCI-H522 lung | key= CN(Cc1cnc2nc(N)nc(N)c2n1)c1ccc(C(=O)NC(CCC(=O)O)C(=O)O)c2ccccc12 (stereo unspecified) 7.12 µM

Lookup Nc1ncnc2c1c(-c1ccc(Oc3ccccc3)cc1)nn2CC1SSCC1O (stereo unspecified) 9.49 µM

Lookup CC1(C)C(=O)/C(=C/c2ccccc2)C(C)(C)C1(C)C > 100 µM

Lookup OCCN1CCN(c2nc(N3CCCC3)c3nc(Cl)c(NCc4ccccc4)nc3n2)CC1 18.7 µM

Lookup CC1CC(c2ccccc2)=Nc2ccccc2S1 (stereo unspecified) > 100 µM

Lookup Cn1c(CO)ccc1-c1ccc(-c2ccc(CO)[se]2)[se]1 > 86.3 µM

Lookup CC(C)(C)OC(=O)N[C@H]1CC(=O)c2ccccc2N(CC(=O)O)C1=O > 100 µM

Lookup BrC1(c2ccccc2)C[n+]2c(-c3ccccc3)cc(-c3ccccc3)cc2-c2ccccc21 (stereo unspecified) 11.3 µM

Lookup CC(=O)c1c(-c2ccc(Cl)cc2)c(C#N)c(=S)n(C2OC(CO)C(O)C(O)C2O)c1C (stereo unspecified) > 100 µM

Lookup Cc1ccc2ccc3c4ccccc4ccc3c2c1 51.7 µM

Lookup Cc1ccccc1Nc1cc(O)c2c(=O)cc(-c3ccccc3)oc2c1 > 100 µM

====

- System: UACC-257 melanoma
- ASSAY DETAILS: NCI tumour cell line growth inhibition, 48 h
Assignment: determine reported TGI for the given compounds.

Any idea what TGI was measured for O=C1c2ccccc2-c2c1c1ccccc1c(=O)n2CCCNCCNCCCn1c2c(c3ccccc3c1=O)C(=O)c1ccccc1-2 ? 3.47 µM

Lookup CCOC1c2nc3ccccc3nc2-c2ccccc2N1C(C)=O (configuration not stated) > 100 µM

Lookup O=c1c2[nH]cnc2n(-c2ccccc2)c(=S)n1-c1ccccc1 > 100 µM

Lookup COc1c(OC2OC(CO)C(O)C(O)C2O)cc2c(c1OC)-c1ccc(OC)c(=O)cc1C(NC(C)=O)CC2 (configuration not stated) > 100 µM

Lookup Cc1ccc(S(=O)(=O)Nc2ccccc2C(C)(C)C)cc1 35.4 µM

Lookup S=C(Sc1ccc(Cl)cc1)Sc1ccc(Cl)cc1 16.6 µM

Lookup CC(C)N(C(=O)C12C3C4C1C1C4(C#N)C3C12C(=O)O)C(C)C (configuration not stated) > 100 µM

Lookup O=C(O)C1CCC(=O)N1C(=O)COc1cc(Cl)c(Cl)cc1Cl (configuration not stated) > 100 µM

Lookup CN1C(c2ccccc2)CC(O)CC1c1ccccc1 (configuration not stated) > 100 µM

Lookup OCCNc1nc2ccccc2c2[nH]c3ccccc3c12 2.33 µM

Lookup O=c1[nH]c(=S)[nH]c(O)c1/C=C1\C=Nc2ccccc21 53.6 µM

Lookup CC(=O)c1c(-c2ccc(Cl)cc2)c(C#N)c(=S)n(C2OC(CO)C(O)C(O)C2O)c1C (configuration not stated) > 100 µM

Lookup CCOC(=O)c1cc(C(=O)c2ccc(OC)c(OC)c2)n2c1ccc1ccc3cccnc3c12 > 100 µM

Lookup O=[N+]([O-])c1cccnc1S(=O)(=O)c1ccccc1 33.4 µM

Lookup O=C1C=CC2(CCC23C=CC(=O)O3)O1 (configuration not stated) > 100 µM

Lookup COc1ccc(C2C(=O)c3ccc(OC)cc3OC2c2cccnc2)cc1 (configuration not stated) > 100 µM

Lookup CC(C)(C)O/N=C/c1cc(NC(=S)c2ccccc2)ccc1Cl 31 µM

Lookup O=c1c2ccccc2nc(-c2cccc(Cl)c2)n1NC1OC(CO)C(O)C(O)C1O (configuration not stated) > 100 µM

Lookup Cc1nc(C(=Nc2ccc(Br)cc2)Nn2cnnc2)no1 > 100 µM

Lookup COc1cc(C2c3cc4c(cc3[C@@H](Nc3ccc(F)cc3)C3COC[C@H]23)OCO4)cc(OC)c1O (some centres not stated) > 25 µM

Lookup O=c1[nH]ncc2[nH]c3c(c12)CCc1ccccc1-3 > 100 µM

Lookup Cc1cc2nc(N3C(=O)/C(=C/Cc4ccco4)N=C3c3ccccc3)sc2cc1C > 100 µM

Lookup CCc1ccc(Oc2c(-c3ccc(OCc4ccc(Cl)cc4)cc3O)nn(C)c2C(F)(F)F)cc1 3.53 µM

Lookup CCc1c(OC(C)=O)c2c(NC3OC(COC(C)=O)C(OC(C)=O)C(OC(C)=O)C3OC(C)=O)nc(SC)nc2oc1=O (configuration not stated) > 100 µM

Lookup CCC(Oc1ccc(OC)c2c1C(=O)CCC2)C(=O)O (configuration not stated) > 100 µM

Lookup COc1cc2c(cc1OC)C1=C(C=O)c3ccc(OC)c(OC)c3C(O)N1CC2 (configuration not stated) 50 µM

Lookup OCCN1CCN(c2nc(N3CCCC3)c3nc(Cl)c(NCc4ccccc4)nc3n2)CC1 9.79 µM
